Please go through the items and note down their water solubility.
Assay: Water solubility at 25° C.
Conditions: 25° C.
Numbers only, in mg/mL.

compound="O=C(O)c1cccnc1.OCCOCCN1CCN(C2=Nc3ccccc3Sc3ccccc32)CC1 [quetiapine:nicotinic acid 1:1 salt]" recordedmeasurement=262

Need water solubility for each of these compounds.
1. CN1CCN(C2=Nc3cc(Cl)ccc3Nc3ccccc32)CC1.O=C(O)c1ccccc1 [clozapine:benzoic acid 1:1 salt]
2. Cc1nc2n(c(=O)c1CCN1CCC(c3noc4cc(F)ccc34)CC1)CCCC2.O=C(O)c1cccnc1 [risperidone:nicotinic acid 1:1 salt, resperidone:nicotinic acid 1:1 salt]
3. Cc1nc2n(c(=O)c1CCN1CCC(c3noc4cc(F)ccc34)CC1)CCCC2O.O=C(O)c1ccccc1 (centres unmarked) [paliperidone:benzoic acid 1:1 salt, Paliperidone:Benzoic Acid 1:1 Salt]
4. Cc1nc2n(c(=O)c1CCN1CCC(c3noc4cc(F)ccc34)CC1)CCCC2O.O=C(O)c1cccnc1.O=C(O)c1cccnc1 (centres unmarked) [paliperidone:nicotinic acid 1:2 salt]

[1.58, 2170.77, 10.4, 137.3]

----------
For each of the molecules below, state its Carr Index.
Test: Carr Index (USP 1174), flowability
Format: physicochemical
Give bare numbers, in %.

molecule="Cc1nc2n(c(=O)c1CCN1CCC(c3noc4cc(F)ccc34)CC1)CCCC2O.O=C(O)c1ccccc1 (centres unmarked) [paliperidone:benzoic acid 1:1 salt, Paliperidone:Benzoic Acid 1:1 Salt]" unitslabel=% recordedmeasurement=13
molecule="O=C(O)c1cccnc1.OCCOCCN1CCN(C2=Nc3ccccc3Sc3ccccc32)CC1 [quetiapine:nicotinic acid 1:1 salt]" unitslabel=% recordedmeasurement=20
molecule="Cc1nc2n(c(=O)c1CCN1CCC(c3noc4cc(F)ccc34)CC1)CCCC2O (centres unmarked) [paliperidone, reference compound]" unitslabel=% recordedmeasurement=29
molecule="O=C(O)/C=C/C(=O)O.OCCOCCN1CCN(C2=Nc3ccccc3Sc3ccccc32)CC1 [quetiapine:fumaric acid 1:1 salt, reference compound]" unitslabel=% recordedmeasurement=33

Return reported Carr Index; argument: Cc1nc2n(c(=O)c1CCN1CCC(c3noc4cc(F)ccc34)CC1)CCCC2O.O=C(O)c1cccnc1.O=C(O)c1cccnc1 (centres unmarked) [paliperidone:nicotinic acid 1:2 salt] 29

----------
Test: in vivo
Settings: male, Sprague-Dawley, rat, po, 60 mg/kg
parameter: AUC (ng·h/mL)
One number for each entry, in ng·h/mL.

Record request: AUC value, item CN1CCN(C2=Nc3cc(Cl)ccc3Nc3ccccc32)CC1 [clozapine, reference compound] 1320

----------
Assay: in vivo
Conditions: male, Sprague-Dawley, rat, po, 60 mg/kg
Method: All animals used in this study were adult rats (at least 2.5 months of age). Male Sprague-Dawley rats having a bodyweight between 250-300 g were randomly assigned to two groups. […] Blood samples were collected from rat jugular veins and transferred into tubes coated with sodium heparin. To obtain plasma, the blood samples were centrifuged at 2,500×g for 15 min at 4° C. and the supernatants were collected and kept frozen in a freezer at −80° C., until they were analyzed. […]
parameter: Tmax

What value of measured Tmax is listed for CN1CCN(C2=Nc3cc(Cl)ccc3Nc3ccccc32)CC1 [clozapine, reference compound] ? 1 h
